- assay.protocol: Half life in C57BL/6J mouse at 3 mg/kg, po measured up to 30 hrs by LC-MS/MS analysis
- Format: ADME, organism-based
- conditions.used: in vivo

>  <compound>
COc1ccc(Cn2c(=O)n(C)c3c4cc(-c5cnc(OC)c(NS(C)(=O)=O)c5)ccc4ncc32)cc1

>  <half-life>
3.48 h

$$$$
>  <compound>
COc1ccc(Cn2c(=O)n(C)c3c4cc(-c5cnc6ccccc6c5)ccc4ncc32)cc1

>  <half-life>
2.31 h

$$$$
>  <compound>
Cn1c(=O)n(-c2ccc(C(C)(C)C#N)cc2)c2c3cc(-c4cnc5ccccc5c4)ccc3ncc21 [DACTOLISIB]

>  <half-life>
1.88 h

$$$$
